Molecular target: T1, human ILT3 (LILRB4) on CHO cells (human, UniProt Q8NHJ6 24-443)
T1 construct: also called CHO ILT3 cell line
T1 sequence (Q8NHJ6 other isoform, or with tags, fused parts or gaps): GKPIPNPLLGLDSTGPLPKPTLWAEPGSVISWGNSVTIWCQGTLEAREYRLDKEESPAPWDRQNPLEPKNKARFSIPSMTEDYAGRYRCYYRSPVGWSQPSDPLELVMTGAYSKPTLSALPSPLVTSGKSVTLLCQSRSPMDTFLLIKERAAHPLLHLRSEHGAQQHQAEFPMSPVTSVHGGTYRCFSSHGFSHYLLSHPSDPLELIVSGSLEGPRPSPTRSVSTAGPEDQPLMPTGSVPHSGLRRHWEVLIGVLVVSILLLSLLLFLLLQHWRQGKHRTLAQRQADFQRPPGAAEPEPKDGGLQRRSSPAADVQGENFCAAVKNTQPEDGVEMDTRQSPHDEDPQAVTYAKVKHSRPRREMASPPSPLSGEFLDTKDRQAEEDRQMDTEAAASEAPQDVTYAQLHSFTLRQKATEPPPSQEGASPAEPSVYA
Experiment: flow cytometry, CHO transfectants
READOUT_NAME: binding result

>>> assay_result("3H5 (antibody, human IgG1, V domains shown) VH: QVQLKESGPGLVAPSQSLSITCTVSGFSLTSYGVSWVRQPPGKGLEWLGVIWGDGSTNYHSALISRLSISKDNSKSQVFLKLNSLQTDDTATYYCAKPRWDDYAMDYWGQGTSVTVSS VL: DIQMTQTTSSLSASLGDRVTISCRASQDISNYLNWYQQKPDGTVKLLIYYTSRLHSGVPSRFSGSGSGTDYSLTISNLEQEDIATYFCQQGNTLWTFGGGTKLEIK")
"no binding"
>>> assay_result("27C10 (antibody, human IgG1, V domains shown) VH: EVQLQESGPGLVKPSQSLSLTCSVTGYSITSGYYWNWIRQFPENKLEWMGYIRYDGSNNYNPSLNNRISITRDASKNQFFLKLNSVTTEDTATYYCARGWLLWFYAVDYWGQGTSVTVSS VL: DVVMTQTPLSLPVSLGDQASISCRSSQSIVHTNGNTYLEWYLQKSGQSPKLLIYKVSNRLSGVPDRFSGSGSGTDFTLKISRVEAEDLGIYYCFQGSHVPWTFGGGTKLEIK")
"no binding"
>>> assay_result("27H5 (antibody, human IgG1, V domains shown) VH: QVQLKESGPGLVAPSQSLSITCTVSGFSLTSYGVSWVRQPPGKGLEWLGVIWGDGNTNYHSALISRLSISKDNSKSQVFLKLNSLQTDDTATYYCARTNWDGWFAYWGQGTLVTVSA VL: DIVMTQSHKFMSTSVGDRVSITCKASQDVGTAVAWYQQKPGQSPKLLIYWASTRHTGVPDRFTGSGSGTDFTLTISNVQSEDLADYFCQQYRSYPLGTFGGGTKLEIK")
"no binding"
